Record form. Attribute: pIC50. Fill in for each entry.
- Tested on: WI-38
- measurement_protocol: Antiproliferative activity against human WI-38 cells assessed as cell growth inhibition measured after 48 hrs by MTT assay
- Format: functional, cell-based
- details: WI-38, 48 h
# reply with the number alone; pIC50 is -log10 of concentration in mol/L

Look at this molecule and give its reported pIC50. O=C1c2cc([N+](=O)[O-])ccc2-c2ccc([N+](=O)[O-])c3ccnc1c23
4.69

Give the measured pIC50 of O=C1c2ccc(F)cc2-c2cccc3ccnc1c23 .
4.44

Record request: pIC50 value, item O=C1c2ccccc2-c2ccc([N+](=O)[O-])c3ccnc1c23
4.83

Which value of pIC50 has been reported for COc1ccc2c3c(nccc13)C(=O)c1cc(OCc3ccccc3)ccc1-2 in the records?
4.41

Value lookup for pIC50; key = COc1ccc2c3c(nccc13)C(=O)c1ccccc1-2
4.69

All figures here come from ChEMBL document CHEMBL5131473.
